Every entry's value here was drawn from patent US20200223889A1.

Each entry below lists one item and its recorded MC4R cAMP EC50 value.
biological target: human melanocortin 4 receptor (human, UniProt P32245 1-332); test: cell-based or functional assay
Sequence (P32245 whole entry): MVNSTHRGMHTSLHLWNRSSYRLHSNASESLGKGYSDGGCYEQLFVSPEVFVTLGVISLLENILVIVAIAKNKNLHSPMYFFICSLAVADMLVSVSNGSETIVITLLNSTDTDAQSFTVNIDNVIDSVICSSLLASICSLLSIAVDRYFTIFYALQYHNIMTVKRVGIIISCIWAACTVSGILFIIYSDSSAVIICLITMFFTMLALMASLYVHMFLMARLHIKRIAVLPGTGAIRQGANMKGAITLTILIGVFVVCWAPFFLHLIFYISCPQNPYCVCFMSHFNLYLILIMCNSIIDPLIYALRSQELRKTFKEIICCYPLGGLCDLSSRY
Positions of bridges follow the written chain, without caps; N, C: chain ends. Non-standard residues stand in square brackets, D forms with d. Lys(Me2) = CN(C)CCCC[C@H](N)C(=O)O
readoutName: MC4R cAMP EC50 (nM)

binder: CXHFRWCXHFRW (ACBC 2, 8; D-Phe 4, 10; disulphide Cys1-Cys7; head-to-tail amide Cys1-Trp12, also called c[c[Cys-ACBC-His-D-Phe-Arg-Trp-Cys]-ACBC-His-D-Phe-Arg-Trp]) [Chem. 20]
uom: nM
assayValue: 0.04
--
binder: cyclo(CAH[dF]KWCAH[dF]KW) (disulfide 1-7; SMILES C[C@@H]1NC(=O)[C@@H]2CSSC[C@H](NC(=O)[C@H](Cc3c[nH]c4ccccc34)NC(=O)[C@H](CCCCN)NC(=O)[C@@H](Cc3ccccc3)NC(=O)[C@H](Cc3c[nH]cn3)NC1=O)C(=O)N[C@@H](C)C(=O)N[C@@H](Cc1c[nH]cn1)C(=O)N[C@H](Cc1ccccc1)C(=O)N[C@@H](CCCCN)C(=O)N[C@@H](Cc1c[nH]c3ccccc13)C(=O)N2, also called c[c[Cys-Ala-His-D-Phe-Lys-Trp-Cys]-Ala-His-D-Phe-Lys-Trp]) [Chem. 15]
uom: nM
assayValue: 0.09
--
binder: cyclo(CAH[dF][Lys(Me2)]WCAH[dF][Lys(Me2)]W) (disulfide 1-7; SMILES C[C@@H]1NC(=O)[C@@H]2CSSC[C@H](NC(=O)[C@H](Cc3c[nH]c4ccccc34)NC(=O)[C@H](CCCCN(C)C)NC(=O)[C@@H](Cc3ccccc3)NC(=O)[C@H](Cc3c[nH]cn3)NC1=O)C(=O)N[C@@H](C)C(=O)N[C@@H](Cc1c[nH]cn1)C(=O)N[C@H](Cc1ccccc1)C(=O)N[C@@H](CCCCN(C)C)C(=O)N[C@@H](Cc1c[nH]c3ccccc13)C(=O)N2, also called c[c[Cys-Ala-His-D-Phe-Lys(Me)2-Trp-Cys]-Ala-His-D-Phe-Lys(Me)2-Trp]) [Chem. 18]
uom: nM
assayValue: 0.12
